Values were extracted from patent US20210388087A1.

# Tested System: T1, Human CD3eg linker (human)
# T1 construct: Single chain: epsilon and gamma subunits of human CD3 joined by a 29-mer linker, Flag-tag at the C-terminus; also called recombinant human CD3
# T1 chain: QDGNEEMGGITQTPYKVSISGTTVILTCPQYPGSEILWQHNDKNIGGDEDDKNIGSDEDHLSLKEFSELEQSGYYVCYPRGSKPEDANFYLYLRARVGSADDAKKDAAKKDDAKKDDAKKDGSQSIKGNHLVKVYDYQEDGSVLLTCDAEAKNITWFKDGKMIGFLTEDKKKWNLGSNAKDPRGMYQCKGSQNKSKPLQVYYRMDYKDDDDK
# Test Method Notes: Biacore SPR, vs template H183/L072
Listed binders paired with reported fold change of affinity
Report the value in fold with no unit label.

Problem: What does the data say about its fold change of affinity? Entry: H183/L072 VH A32P (antibody, name in Kabat numbering, V domains shown) VH: QVQLVESGGGLVQPGRSLRLSCAASGFTFSNPWMHWVRQAPGKGLEWVAQIKDKGNAYAAYYAPSVKGRFTISRDDSKNSIYLQMNSLKTEDTAVYYCHYVHYASASTVLPAFGVDAWGQGTTVTVSS VL: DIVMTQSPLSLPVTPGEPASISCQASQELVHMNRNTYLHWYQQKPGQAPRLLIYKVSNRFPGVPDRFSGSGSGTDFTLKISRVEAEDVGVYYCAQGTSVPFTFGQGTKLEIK
Result: 0

Problem: What does the data say about its fold change of affinity? Entry: H183/L072 VH S100aL (antibody, name in Kabat numbering, V domains shown) VH: QVQLVESGGGLVQPGRSLRLSCAASGFTFSNAWMHWVRQAPGKGLEWVAQIKDKGNAYAAYYAPSVKGRFTISRDDSKNSIYLQMNSLKTEDTAVYYCHYVHYASALTVLPAFGVDAWGQGTTVTVSS VL: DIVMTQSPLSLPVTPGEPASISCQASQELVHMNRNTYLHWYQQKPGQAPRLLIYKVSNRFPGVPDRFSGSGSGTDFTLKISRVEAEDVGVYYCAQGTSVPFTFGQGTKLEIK
Result: 1.1

Problem: What does the data say about its fold change of affinity? Entry: H183/L072 VH V95M (antibody, name in Kabat numbering, V domains shown) VH: QVQLVESGGGLVQPGRSLRLSCAASGFTFSNAWMHWVRQAPGKGLEWVAQIKDKGNAYAAYYAPSVKGRFTISRDDSKNSIYLQMNSLKTEDTAVYYCHYMHYASASTVLPAFGVDAWGQGTTVTVSS VL: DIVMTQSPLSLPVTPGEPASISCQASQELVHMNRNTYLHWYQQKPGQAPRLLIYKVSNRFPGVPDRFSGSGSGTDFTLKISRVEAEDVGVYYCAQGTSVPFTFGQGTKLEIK
Result: 0.3

Problem: What does the data say about its fold change of affinity? Entry: H183/L072 VH V100cL (antibody, name in Kabat numbering, V domains shown) VH: QVQLVESGGGLVQPGRSLRLSCAASGFTFSNAWMHWVRQAPGKGLEWVAQIKDKGNAYAAYYAPSVKGRFTISRDDSKNSIYLQMNSLKTEDTAVYYCHYVHYASASTLLPAFGVDAWGQGTTVTVSS VL: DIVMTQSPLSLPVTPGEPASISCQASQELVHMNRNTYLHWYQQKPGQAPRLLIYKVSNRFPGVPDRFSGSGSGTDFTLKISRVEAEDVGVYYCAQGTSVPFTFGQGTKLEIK
Result: 1.2
